From various publications: pKi for Sodium-dependent serotonin transporter (Homo sapiens).
pKi: −log10 of the molar value.

# Compound, Target or system, Result modifier, pKi
measured = [
    ("COc1ccc(C2NCCc3c2[nH]c2ccc(F)cc32)c(O)c1 (stereo unspecified)", "Sodium-dependent serotonin transporter (Homo sapiens)", "=", 5.73),
    ("Fc1ccccc1Oc1cccc(F)c1OC1CCNCC1", "Sodium-dependent serotonin transporter (Homo sapiens)", "<", 5.33),
    ("CN(C)Cc1cc(OCCF)ccc1Sc1ccc(F)cc1N", "Sodium-dependent serotonin transporter (Homo sapiens)", "=", 10.00),
    ("O=c1[nH]c2cccc(N3CCN(CC4CCc5c([nH]c6ccc(F)cc56)C4)CC3)c2o1 (stereo unspecified)", "Sodium-dependent serotonin transporter (Homo sapiens)", "=", 7.21),
    ("COCCOc1cc(Br)cc(CC2CCN(CCc3cc4c(cc3Cl)OCCO4)CC2)c1", "Sodium-dependent serotonin transporter (Homo sapiens)", "=", 7.85),
    ("CCCN(C(=O)c1cccc(Cl)c1Cl)[C@H]1CCNC1", "Sodium-dependent serotonin transporter (Homo sapiens)", "=", 7.80),
]
